# TEST SUMMARY: Acute toxicity test in Kunming mice
# Assay type: in vivo
# RUN CONDITIONS: Kunming, mouse, in vivo, po
VALUE TYPE: LD50 at 2 weeks

Look at this molecule and give its reported LD50 at 2 weeks. Cc1cc(C#N)cc(C)c1Oc1nc(NC2CCN(Cc3ccc(C(N)=O)cc3)CC2)ncc1-c1ccncc1 [Compound 16c]
> 2000 mg/kg

###

# Tested on: HIV-2 ROD
# TEST SUMMARY: Anti-HIV-2 ROD activity in MT-4 cells, MTT method
# Format: cell-based
# RUN CONDITIONS: Human immunodeficiency virus 2, MT4, read-out: EC50 ROD
VALUE TYPE: EC50

Cc1cc(C#N)cc(C)c1Oc1nc(NC2CCN(Cc3ccc(S(C)(=O)=O)cc3)CC2)ncc1-c1ccco1 [Compound 13b] :: > 7.46 µM

Provide EC50 values for the following items, in order.
1. Cc1cc(C#N)cc(C)c1Oc1nc(NC2CCN(Cc3ccc(C(N)=O)cc3)CC2)ncc1-c1ccoc1 [Compound 14c]
2. Cc1cc(C#N)cc(C)c1Oc1nc(NC2CCN(Cc3ccc(S(N)(=O)=O)cc3)CC2)ncc1-c1ccsc1 [Compound 12a]

> 182 µM
> 6.12 µM

Provide EC50 values for the following items, in order.
1. Cc1cc(C#N)cc(C)c1Oc1nc(NC2CCN(Cc3ccc(S(N)(=O)=O)cc3)CC2)ncc1-c1cccs1 [Compound 11a]
2. Cc1cc(C#N)cc(C)c1Oc1nc(NC2CCN(Cc3ccc(C(N)=O)cc3)CC2)ncc1-c1ccncc1 [Compound 16c]

1: ≥ 33.4 µM; 2: > 36 µM

###

# TEST SUMMARY: in vivo
# RUN CONDITIONS: Sprague-Dawley, rat, iv, 2 mg/kg
VALUE TYPE: Tmax (min)
Give bare numbers, in min.

Look at this compound and give its reported Tmax. Cc1cc(C#N)cc(C)c1Oc1nc(NC2CCN(Cc3ccc(C(N)=O)cc3)CC2)ncc1-c1ccncc1 [Compound 16c]
1.98
